Test: SAD study in healthy volunteers: PK in plasma, whole blood, red blood cells
Format: in vivo, human
Conditions: human, red blood cells, po, 50 mg, HV single oral 50 mg (Cohort 1); red blood cells (calculated conc.); geometric mean; read-out: AUClast
measurement.type: AUC(0-t) (µg·h/mL)
Numbers only, in µg·h/mL.

## Task Param item = O=Cc1c(O)cccc1OC[C@@H]1COCCN1C(=O)c1cccnc1CCO ; retrieve measured AUC(0-t).
## Result 16500

====

Test: SAD study in healthy volunteers: PK in plasma, whole blood, red blood cells
Assay type: in vivo, human
Details: human, red blood cells, po, 400 mg, HV single oral 400 mg (Cohort 5); red blood cells (calculated conc.); geometric mean; read-out: AUClast
Description: To evaluate the safety and tolerability of single ascending doses of Compound I, 48 healthy volunteers (42 in the fasted state and 6 in the fed state) aged 18 to 55 years old were administered single ascending doses (50 mg to 2200 mg) of Compound I, while 16 healthy volunteers (14 in the fasted state and 2 in the fed state) aged 18 to 55 years old were administered placebo in a double blind, randomized, sequential manner. […]
measurement.type: AUC(0-t) (µg·h/mL)
Answers are plain numbers, in µg·h/mL.

## Task Param item = O=Cc1c(O)cccc1OC[C@@H]1COCCN1C(=O)c1cccnc1CCO ; retrieve measured AUC(0-t).
## Result 151000

These entries and their values trace back to patent US20250041312A1.
